- Tested on: UACC-62 melanoma
- experimentNotes: NCI-60 one-dose screen, 48 h (100 = growth as untreated, 0 = no growth, -100 = all killed)
- measurementContext: 10 µM unless noted
About 83,000 compounds went through this panel and 20% of them were active in at least one assay; those are over-represented in the sample as a whole.
readoutName: growth (%)
State the answer as a number, implicitly in %.

Solved entries (count: 2):
INSERT INTO assay_data (molecule, readoutname, recordedmeasurement) VALUES
  ('CCCCNCCCN(CCCC)CCCNCCCC', 'growth', 96.5),
  ('Cc1ccc(-c2c3c(N)nc(-c4ccncc4)nc3nc3c2c(C)nn3-c2ccccc2)cc1', 'growth', 58.3);

Proceed to the following item.
Exam item: growth lookup needed for CC1c2ccccc2-c2ccccc2N1C (stereo unspecified) , thanks.
Marked response: 86.6

###

- Test system: HCT-15 colon
- experimentNotes: NCI-60 one-dose screen, 48 h
- measurementContext: 10 µM unless noted
About 83,000 compounds went through this panel and 20% of them were active in at least one assay; those are over-represented in the sample as a whole. Activity calls are given as the source filed them. The calls were made as follows: active = growth percent below 10; inactive = the rest.
The reply should be one of these categories: active, inactive

INSERT INTO assay_data (mol, classification) VALUES
  ('CCOc1cc(/C=C/C(=O)CC(=O)/C=C/c2ccc(OC(=O)CNc3nc4ccc(OC)cc4s3)c(OCC)c2)ccc1OC(=O)CNc1nc2ccc(OC)cc2s1', 'inactive'),
  ('CN(C)c1ccc(-c2nc3ncc(Br)cc3o2)cc1', 'inactive'),
  ('COc1cc(/C=C/C(=O)c2c(C)n([O-])c3ccccc3[n+]2=O)cc(OC)c1OC', 'inactive'),
  ('COc1ccc([N+](=O)[O-])c(S(=O)(=O)c2ccc(Cl)cc2)n1', 'inactive');

Exam item: What call does the record list for `CC[N+](CCCCCCCCCC[N+](CC)(c1ccccn1)c1ccccn1)(c1ccccn1)c1ccccn1` ?
Marked response: inactive

Exam item: What call does the record list for `O=C1C(=O)c2c(nc3ccc(Cl)cn23)-c2ccccc21` ?
Marked response: active

Exam item: What call does the record list for `COc1ccc(Cl)cc1Nc1nc(C(F)(F)F)ccc1C(=O)N/N=C/c1c(Cl)cccc1Cl` ?
Marked response: inactive

Exam item: What call does the record list for `CCOC(=O)CCN(c1c(Cl)ssc1=O)C(C)C` ?
Marked response: inactive

Exam item: What call does the record list for `COc1cc(/C=C2\SC(N3CCCCC3)=NC2=O)ccc1OCCCCCCOc1ccc(/C=C2\SC(N3CCCCC3)=NC2=O)cc1OC` ?
Marked response: inactive

###

- System: SK-MEL-2 melanoma
- experimentNotes: NCI-60 one-dose screen, 48 h
- measurementContext: 10 µM unless noted
The panel holds about 83,000 compounds, 20% with a hit somewhere; the sample as a whole holds those more often. Activity calls are given as the source filed them. The calls were made as follows: active = growth percent below 10; inactive = the rest.
The reply should be one of these categories: class 1 (active), class 0 (inactive)

INSERT INTO measurements (compound, classification) VALUES
  ('C1=C(Cc2ccccc2)n2cnc3ncnc(c32)S1', 'class 0');

Exam item: What call does the record list for `COc1c(O)cc2c(c1CC=C(C)C)OC(=O)c1c(cc(O)c(CC=C(C)C)c1O)O2` ?
Marked response: class 0

Exam item: What call does the record list for Fc1ccccc1C1c2ccccc2-c2nccn21 (stereo unspecified) ?
Marked response: class 0

Exam item: What call does the record list for `CC[C@@H](c1ccc(O)c(O)c1)[C@@H](CC)c1ccc(O)c(O)c1` ?
Marked response: class 0

Exam item: What call does the record list for `Cc1nn(-c2ccccc2)cc1/C=C1\SC(N2CCCCC2)=NC1=O` ?
Marked response: class 0

Exam item: What call does the record list for CC1CC=CCC1C1OCC(C)(C)CO1 (stereo unspecified) ?
Marked response: class 0

Exam item: What call does the record list for CCCCCCC(CC#N)(CCC)CCCC (stereo unspecified) ?
Marked response: class 0

Exam item: What call does the record list for `CC[N+](CCCCCCCCCC[N+](CC)(c1ccccn1)c1ccccn1)(c1ccccn1)c1ccccn1` ?
Marked response: class 1

Exam item: What call does the record list for `CN1CCN(CCCOc2ccc3ncnc(Nc4ccc(OCc5cccc(F)c5)c(Cl)c4)c3c2)CC1` ?
Marked response: class 1

Exam item: What call does the record list for CC1CN(/N=C/c2ccc([N+](=O)[O-])o2)C(=N)O1 (stereo unspecified) ?
Marked response: class 0

Exam item: What call does the record list for C=C1CCC2C3(C)COC(c4ccccc4)OC3CCC2(C)C1C/C=C1/C(=O)OCC1OC(C)=O (stereo unspecified) ?
Marked response: class 0

Exam item: What call does the record list for `O=C(COc1cccc(/C=C2\Oc3ccc4ccccc4c3C2=O)c1)c1ccc(Cl)cc1` ?
Marked response: class 0

Exam item: What call does the record list for `COc1c(Br)cc(C(c2cc(Br)c(OC)c(Br)c2)c2ccccc2C(=O)O)cc1Br` ?
Marked response: class 0

Exam item: What call does the record list for `CC(=O)c1ccc(NS(=O)(=O)c2ccc([N+](=O)[O-])cc2)cc1` ?
Marked response: class 0

Exam item: What call does the record list for O=C1CSC(c2ccccc2Cl)N1c1nnc(Cn2nnc3ccccc32)o1 (stereo unspecified) ?
Marked response: class 0

Exam item: What call does the record list for `COc1cnc2c(c1)C(=O)c1c-2n(CCCN2CCC(O)CC2)c(=O)c2cc(F)ccc12` ?
Marked response: class 1

Exam item: What call does the record list for `N#Cc1c(-c2ccccc2)cc(-c2ccccc2)n(CCC(=O)O)c1=O` ?
Marked response: class 1

Exam item: What call does the record list for CC(=O)OC1Oc2cc(C)c(C)cc2-c2oc(=O)c(-c3ccccc3)cc21 (stereo unspecified) ?
Marked response: class 0

Exam item: What call does the record list for `C(#Cc1ccccc1C#Cc1ccccn1)c1ccc(OCCCCCCOc2ccc(C#Cc3ccccc3C#Cc3ccccn3)cc2)cc1` ?
Marked response: class 0

Exam item: What call does the record list for `Cc1ccc(N/N=C(/C(=O)c2ccc(Cl)cc2)c2nc(C)cc(=O)[nH]2)cc1` ?
Marked response: class 0

Exam item: What call does the record list for `O=C(O)C1CCN(S(=O)(=O)c2ccc(-c3ccccc3)cc2)CC1` ?
Marked response: class 1

Exam item: What call does the record list for `CCSc1nc(Nc2ccc(S(=O)(=O)Nc3ccon3)cc2)c(C#N)c(-c2cccc(Br)c2)n1` ?
Marked response: class 0

Exam item: What call does the record list for `O=C1NC(=O)/C(=C\c2ccco2)S1` ?
Marked response: class 0

###

- Test system: MOLT-4 leukemia
- experimentNotes: NCI-60 one-dose screen, 48 h
- measurementContext: 10 µM unless noted
Compounds without any hit were thinned out: in the full panel of roughly 83,000, 20% have a hit. Activity calls are given as the source filed them. How the source made its calls: active means growth percent below 10; inactive means the rest.
The reply should be one of these categories: active, inactive

Example entries begin here.
INSERT INTO assay_data (compound, classification) VALUES
  ('Cc1onc(-c2ccccc2Cl)c1C(=O)N[C@@H]1C(=O)N2[C@@H]1SC(C)(C)[C@@H]2C(=O)O', 'inactive'),
  ('COc1cc(/C(Cl)=C/C=C/C(=O)c2c(C)[n+]([O-])c3ccc(Cl)cc3[n+]2[O-])cc(OC)c1OC', 'inactive'),
  ('CNCCCn1c2c(c3ccc(F)cc3c1=O)C(=O)c1cc(OC)cnc1-2', 'active'),
  ('CCSc1nc(-c2ccco2)n2nc(-c3ccco3)cc2n1', 'inactive'),
  ('O=[N+]([O-])c1ccc(NS(=O)(=O)c2ccc(Cl)c(Cl)c2)cc1', 'inactive');

Exam item: What call does the record list for `O=C(c1ccc(N2CCOCC2)cc1[N+](=O)[O-])N1CCOCC1` ?
Marked response: inactive

Exam item: What call does the record list for `CC(C)OP(=O)(OC(C)C)c1ncc(-c2ccc(C(F)(F)F)cc2)c(NC2CCCCCC2)n1` ?
Marked response: active

Exam item: What call does the record list for CC12CCC3C(=CCc4cc(O)ccc43)C1CCC2=O (stereo not given) ?
Marked response: inactive

Exam item: What call does the record list for `CC(=O)Nc1ccc(C(=O)COc2cccc(/C=C3\CCc4ccccc4C3=O)c2)cc1` ?
Marked response: inactive

Exam item: What call does the record list for `Cc1n(Cc2ccc3ccccc3c2)cc[n+]1Cc1ccc2ccccc2c1` ?
Marked response: inactive

###

- System: OVCAR-5 ovarian
- experimentNotes: NCI-60 one-dose screen, 48 h (100 = growth as untreated, 0 = no growth, -100 = all killed)
- measurementContext: 10 µM unless noted
This is part of a sample that, as a whole, favours compounds with a hit. Of some 83,000 tested, about 20% had one in any assay. Calls of active or inactive are those of the source. The calls were made as follows: active = growth percent below 10; inactive = the rest.
readoutName: growth

Solved entries (count: 8):
INSERT INTO results (molecule, recordedmeasurement) VALUES
  ('Cc1ccc(/C=C(/C#N)n2nnc3ncccc32)cc1', '-20.3% (active)'),
  ('Cc1cn(C(C=O)OC(C=O)CO)c(=O)[nH]c1=O (configuration not stated)', '111% (inactive)'),
  ('O=CN1N=C(c2ccc(Cl)cc2)CC1c1cccc(Nc2ccnc3cc(Cl)ccc23)c1 (configuration not stated)', '34.6% (inactive)'),
  ('COc1ccc(CNC(=O)c2c(C)n([O-])c3ccc(OC)cc3[n+]2=O)cc1', '103% (inactive)'),
  ('CCCCCCCCN(CCO)CCCCCCCC', '96.9% (inactive)'),
  ('Nc1ccccc1-c1ccn[nH]1', '83% (inactive)'),
  ('O=c1[nH]cc(Nc2cc(Cl)c3nonc3c2[N+](=O)[O-])c(=O)[nH]1', '98.1% (inactive)'),
  ('OCCCc1n(Cc2ccc3ccccc3c2)c2ccccc2[n+]1Cc1ccc2ccccc2c1', '31% (inactive)');

Exam item: growth lookup needed for `O=C(O)CNC(=O)C1(N2C(=O)c3ccccc3C2=O)CCCC1` , thanks.
Marked response: 101% (inactive)
